Assay: NCI Yeast Anticancer Drug Screen. Data for the mlh1 rad18 strain (AID 175)
Settings: S. cerevisiae mlh1 rad18 strain growth inhibition; at 50.0 µM
Description: Growth inhibition of yeast strains with defined genetic alterations is measured as a screen for potential anti-cancer activity. Selected strains with alterations in DNA damage repair or cell cycle control were exposed to compounds and growth inhibition was measured relative to vehicle treated controls. The strain used in this assay is mlh1 rad18
The panel holds about 79,000 compounds, 15% with a hit somewhere; the sample as a whole holds those more often. Calls of active or inactive are those of the source. Cut-off read from the data, not from the text of the source: active = growth inhibition above about 70%; inactive = the rest.
Possible outcomes: true (1) (active), false (0) (inactive)

>>> cat("C1=C(c2ccccc2)C(c2ccccc2)C(c2ccccc2)C/C1=N/OCCN1CCCC1 (stereo not drawn)")
"true (1)"
>>> cat("Cc1ccc(-c2c3nc(c(-c4ccc(C)cc4)c4ccc([nH]4)c(-c4ccc(C)cc4)c4nc(c(-c5ccncc5)c5ccc2[nH]5)C=C4)C=C3)cc1.Cc1ccc(-c2c3nc(c(-c4ccc(C)cc4)c4ccc([nH]4)c(-c4ccc(C)cc4)c4nc(c(-c5ccncc5)c5ccc2[nH]5)C=C4)C=C3)cc1.O=S(=O)([O-])C(F)(F)F.[Pt+2].c1ccc([PH+](CCC[PH+](c2ccccc2)c2ccccc2)c2ccccc2)cc1")
"false (0)"
>>> cat("CC(C)(C)[Si](C)(C)O/N=C\\c1cccc(O[Si](C)(C)C(C)(C)C)c1")
"true (1)"
>>> cat("CC12CCC(c3sc(N)c(C#N)c31)C2(C)C (stereo not drawn)")
"false (0)"
>>> cat("CCN1C(/C=C/c2ccc(O)c3ncccc23)CCC2CC(C)CCC21 (stereo not drawn)")
"true (1)"
>>> cat("N=C(N)SCc1cc(Cl)cc(Cl)c1O")
"true (1)"
>>> cat("O=[N+]([O-])/C(C=Nc1ccccc1)=C/Nc1ccccc1")
"true (1)"
>>> cat("OCCCC(Sc1ccccc1)c1ccccc1 (stereo not drawn)")
"false (0)"

###

assay: NCI Yeast Anticancer Drug Screen. Data for the cln2 rad14 strain (AID 165);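 note: 0% = growth equal to vehicle treated cultures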; conditions: S. cerevisiae cln2 rad14 strain, at 50.0 µM (retest, dose inferred, filed as 5.0)
Compounds without any hit were thinned out: in the full panel of roughly 79,000, 15% have a hit. The source made the active and inactive calls. Rule as the data show it: active = growth inhibition above about 70%; inactive = the rest.
Possible outcomes: active, inactive

>>> cat("CCCCNc1ncc(OCC)c(NCCCC)n1")
"inactive"
>>> cat("FC(F)(F)c1cccc(Nc2ccc3cnc4ccccc4c3c2)c1")
"active"
>>> cat("CN(C)C1=C(Cl)C(=O)c2ccccc2C1=O")
"inactive"
>>> cat("O=C(C[n+]1ccccc1)N=N/C(C(=O)Nc1c(Cl)c(O)c2ccccc2c1O)=C1/C(=O)Oc2cc(O)ccc2C1=O")
"active"
>>> cat("COC(=O)CCC(=O)c1ccc2c(c1)CC1(Cc3ccccc3C1)C2")
"inactive"
>>> cat("O=C1C(Br)CCC1(c1ccccc1)c1ccccc1 (stereo unspecified)")
"active"
>>> cat("CCc1cc2nc3c(=O)[nH]c(=O)nc-3n(CCN(CCO)CCO)c2cc1CC")
"inactive"
>>> cat("CCCCCCCCCCCCOC(=O)C[N+]1(C)CCCCC1")
"active"
>>> cat("COC(=O)[C@]1(C)CCC[C@]2(C)c3ccc(C(C)C)cc3C(=O)C[C@@H]12")
"active"
>>> cat("COc1ccccc1C(=O)Nc1ccc(Cl)c(C(=O)OC(C)C)c1")
"inactive"
>>> cat("Cc1oc2c(c1C(=O)c1ccccc1)C(=O)c1ccccc1C2=O")
"active"
